Provenance of the data: patent US20230096452A1

Entries and their FACS binding signal (read-out unnamed) values follow.
target: T1, human claudin 18.2 (hCLDN18.2) (human); assay: flow cytometry on HEK293-hCLDN18.2 cells; 5 ug/mL; not heat treated
T1 construct: also called CLDN18 splice variant 2; HEK293-hCLDN18.2
Please give the numeric answer without any surrounding text.

h5M9V10 humanized antibody (h5M9 VHv4 / h5M9 VLv1) (antibody, human IgG1, kappa, V domains shown, Human IgG1 (G1m17) / kappa) VH: QVQLKESGPGLVAPSETLSITCTVSGFSLTTYGVQWVRQPPGKGLEWLGAIWAGGNTNYNSALMSRLTISKDNSKSQVSLKMSSLTAADTAIYYCAKGGYGNAMDYWGQGTLVTVSS VL: DIVMTQSPSSLAVSLGERATMNCKSSQSLLNSGNQKNYLTWYQQKPGQPPKLLIYWASTRESGVPDRFSGSGSGTDFTLTISSVQAEDLAVYYCQNDYFFPFTFGQGTKLEIKR    599

Lab note: h5M9V12 humanized antibody (h5M9 VHv4 / h5M9 VLv3) (antibody, human IgG1, kappa, V domains shown, Human IgG1 (G1m17) / kappa) VH: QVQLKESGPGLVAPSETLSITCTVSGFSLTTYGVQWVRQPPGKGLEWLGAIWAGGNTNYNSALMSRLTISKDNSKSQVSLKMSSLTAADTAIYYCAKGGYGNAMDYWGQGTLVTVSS VL: DIVMTQSPSSLAVSLGERVTMNCKSSQSLLNSGNQKNYLTWYQQKPGQPPKLLIYWASTRESGVPDRFTGSGSGTDFTLTISSVQAEDLAVYYCQNDYFFPFTFGSGTKLEIKR gave FACS binding signal (read-out unnamed) of 589

Lab note: h5M9V7 humanized antibody (h5M9 VHv3 / h5M9 VLv1) (antibody, human IgG1, kappa, V domains shown, Human IgG1 (G1m17) / kappa) VH: QVQLKESGPGLVAPSETLSITCTVSGFSLTTYGVQWVRQPPGKGLEWLGAIWAGGNTNYNSALMSRLTISKDNSKSQVSLKMSSVTAADTAIYYCAKGGYGNAMDYWGQGTLVTVSS VL: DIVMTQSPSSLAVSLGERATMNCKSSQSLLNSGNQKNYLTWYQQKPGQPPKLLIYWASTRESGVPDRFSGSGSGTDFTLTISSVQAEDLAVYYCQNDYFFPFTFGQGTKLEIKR gave FACS binding signal (read-out unnamed) of 631
